FYI, the data here is from paper PMC7154896.

- tested.system: tagged Cp3GT (Citrus x paradisi, UniProt C5MR71)
- Construct: recombinant, Pichia pastoris X-33 (pPicZa), C-terminal thrombin site and c-myc/6x His tags kept; cobalt IMAC
- Sequence (C5MR71 1-468): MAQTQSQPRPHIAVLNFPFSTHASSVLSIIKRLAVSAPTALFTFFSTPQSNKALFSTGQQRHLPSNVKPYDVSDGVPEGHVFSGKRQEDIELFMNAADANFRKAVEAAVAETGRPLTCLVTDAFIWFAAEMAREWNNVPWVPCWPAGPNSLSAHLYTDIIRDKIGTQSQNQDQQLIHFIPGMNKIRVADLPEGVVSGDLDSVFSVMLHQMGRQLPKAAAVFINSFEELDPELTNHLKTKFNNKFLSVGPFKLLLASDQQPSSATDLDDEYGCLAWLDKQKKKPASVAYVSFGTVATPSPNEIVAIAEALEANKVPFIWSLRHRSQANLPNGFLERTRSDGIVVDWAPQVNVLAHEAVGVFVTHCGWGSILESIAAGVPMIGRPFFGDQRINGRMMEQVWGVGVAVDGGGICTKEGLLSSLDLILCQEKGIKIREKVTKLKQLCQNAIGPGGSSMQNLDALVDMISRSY
- procedure.summary: glucosyltransferase assay, UDP inhibition
measure.name: Ki

Data request, read-out Ki, for O=c1ccn([C@@H]2O[C@H](COP(=O)(O)OP(=O)(O)O)[C@@H](O)[C@H]2O)c(=O)[nH]1
61.8 µM

###

- tested.system: untagged Cp3GT (Citrus x paradisi, UniProt C5MR71)
- Construct: recombinant, Pichia pastoris X-33 (pPicZa), C-terminal c-myc/6x His tags cut off with thrombin; cobalt IMAC; 56 kDa on gel
- procedure.summary: glucosyltransferase assay, UDP inhibition
- Assay type: biochemical
measure.name: Ki (µM)
Just the number in µM, nothing appended.

Data request, read-out Ki, for O=c1ccn([C@@H]2O[C@H](COP(=O)(O)OP(=O)(O)O)[C@@H](O)[C@H]2O)c(=O)[nH]1
73.1
